Measured values drawn from patent US20240026024A1 for this set.

- Measured Target: T1, monkey CD73 (Novoprotein, Cat No. C121) (monkey, UniProt A0A2K5V5U7 27-549)
- T1 construct: Bought protein; also called monkey CD73 protein
- T1 sequence: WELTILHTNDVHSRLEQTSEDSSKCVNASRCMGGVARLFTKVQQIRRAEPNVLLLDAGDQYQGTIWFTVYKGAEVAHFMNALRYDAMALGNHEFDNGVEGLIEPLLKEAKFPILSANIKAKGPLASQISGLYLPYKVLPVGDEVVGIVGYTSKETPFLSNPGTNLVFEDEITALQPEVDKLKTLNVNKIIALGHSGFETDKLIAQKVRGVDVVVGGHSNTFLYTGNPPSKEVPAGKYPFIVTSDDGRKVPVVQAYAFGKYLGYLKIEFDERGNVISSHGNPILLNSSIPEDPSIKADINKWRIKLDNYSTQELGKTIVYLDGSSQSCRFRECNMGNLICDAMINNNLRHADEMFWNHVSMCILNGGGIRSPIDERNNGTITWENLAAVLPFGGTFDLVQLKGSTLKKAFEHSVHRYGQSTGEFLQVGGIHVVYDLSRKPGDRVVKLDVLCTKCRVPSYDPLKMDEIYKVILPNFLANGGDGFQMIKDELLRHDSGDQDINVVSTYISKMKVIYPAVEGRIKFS
- Assay Method Text: SPR (Biacore T200), antibody captured on protein A chip, CD73 as analyte, 1:1 model
Readout Type: pKd
Scale note: pKd = -log10(concentration in M).

Task: # input binder: 900696 (antibody, V domains shown, Constant regions are not restated) VH: QVQLVESGGGLVKPGGSLRLSCAASGFTFSKYAMSWIRQAPGKGLEWVAEISSGGGYINYADSVKGRFTISRDNAKNSLYLQMNSLRAEDTAVYYCARAIYYYGSSYNYYAMDYWGQGTTVTVSS VL: DIQMTQSPSSLSASVGDRVTITCRASQDVGTAEAWYQQKPGKAPKLLIYWASTLQSGVPSRFSGSGSGTDFTLTISSLQPEDFATYYCQQYSSYPLTFGQGTKLEIK ; wanted: its pKd
Output: 9.22
